Listed next: entries and their corresponding efflux ratio at 120 min.
Test system: P-gp (rat Mdr1a)
RUN DESCRIPTION: in vitro
COND: pH 7.4, efflux ratio, IPEC-J2 rMdr1a monolayers, Figure 5 comparison series
PROPERTY: efflux ratio at 120 min

SMILES RECORD	ASSAY RESULT
OC[C@@H](O)[C@@H](O)[C@H](O)[C@H](O)CO	1.5
CC[C@]1(O)C[C@@H]2CN(CCc3c([nH]c4ccccc34)[C@@](C(=O)OC)(c3cc4c(cc3OC)N(C)[C@H]3[C@@](O)(C(=O)OC)[C@H](OC(C)=O)[C@]5(CC)C=CCN6CC[C@]43[C@@H]65)C2)C1	12.8

Where do these numbers come from? They come from paper PMC7408396.
